// provenance: PubChem BioAssay

assay: basal MM1S mitochondrial membrane potential changes, profiling panel, cell-based, JC-1 fluorescence, 24 h, 100 nL compound (AID 1170); settings: higher = more signal; also: test concentration not given here
Could you label it True if measured z-score is -0.4 or higher, and False otherwise?

>>> df
                                   compound  qualitative_label
0  CON=C(C)CCC(=O)OC[C@H]1O[C@H](C#Cc2ccccc2)C=C[C@@H]1Oc1ccc(C)cc1               True
1  CO[C@@H](C(C)C)[C@@H](C)C1OC(=O)CC1O (stereo partly specified)               True
2  CC(CCN1CCCCc2nc(C)c(C)cc21)=NO[C@H](C)c1cn([C@@H]2COC[C@H]2O)nn1              False
3  CCN1C(=O)[C@H]2[C@H]3[C@H](O)[C@H](O)CC(=NO[C@H](C)c4cn([C@@H]5COC[C@H]5O)nn4)[C@@H]3CC[C@H]2C1=O               True
4  CC(=O)OC[C@H]1O[C@H](CC=NO[C@H](C)c2cn([C@@H]3COC[C@H]3O)nn2)C=C[C@@H]1OC(C)=O              False
5  O=C1C=C[C@@H](O)[C@@H]2[C@@H]3C(=O)N(Cc4ccc5c(c4)OCO5)C(=O)[C@@H]3CC[C@@H]12               True
